readout_type: melting point

> print(dat)
                                    compound         result
 1  Nc1ccccc1OCCCN1CCC(OC(c2ccccc2)c2ccccc2)CC1    86 to 88 °C
 2  CCC1C(O)C2C3CCC(C(C)CCC(=O)O)C3(C)CCC2C2(C)CCC(O)CC12 (stereo not given)         110 °C
 3  CCOC(=O)NC(C)Cn1cc(-c2ccccc2)c2ccccc2c1=O (stereo not given)         182 °C
 4           FC(F)(F)c1ccc(-c2ncc(Br)cn2)cc1         167 °C
 5      COc1ccc(-c2nc3n(c2-c2cccnc2)CCC3)cc1  164 to 165 °C
 6                 ClCCCCCCCCOc1ccc2ccccc2c1          35 °C
 7           O=C1c2ccccc2-c2cc(O)cc3cccc1c23  297 to 298 °C
 8  Cc1cc(NC(=O)NC(=O)c2ccccc2N2CCOCC2)ccc1Oc1ncc(Br)cn1    67 to 70 °C
 9   Nc1nc(/C(=N/OCC(=O)N2CCCCCC2)C(=O)O)cs1  178 to 179 °C
10  C[C@H](NC(=O)OC(C)(C)C)C(=O)ON1C(=O)CCC1=O         164 °C
11                N#Cc1ccn(O)c1-c1ccc(Cl)cc1  148 to 150 °C
12  COc1ccc(C(=O)c2[nH]c(=O)[nH]c2COC(C)=O)cc1  155 to 162 °C
13  Nc1nc(C(F)(F)C(F)(F)F)nn1-c1c(Cl)cc(C(F)(F)F)cc1Cl  181 to 183 °C
14  CCOC(=O)c1cc([N+](=O)[O-])c(N)nc1C(=O)OCC  120 to 122 °C
15  Cc1cccc(C=CC(=O)c2ccc([N+](=O)[O-])cc2)c1  130 to 132 °C
16  COc1cccc(C(N)c2sccc2S(=O)(=O)Nc2onc(C)c2Br)c1 (stereo not given)    70 to 73 °C
17  COc1cc(C(=O)N2Cc3ccc(C(=O)NCc4cccc(C)c4)n3Cc3ccccc32)ccc1-c1ccccc1C  165 to 166 °C
18  CCCn1cc(Cc2ccc(C(=O)NS(=O)(=O)c3ccccc3Br)cc2OC)c2cc(CCC(C)C(=O)N(C)C)ccc21 (stereo not given)    96 to 99 °C
19    CC(=O)Nc1nnc2c3c(c(N4CCOCC4)nn12)CCCC3  147 to 149 °C
20  CC(C)Cn1c(=O)n(C)c(=O)c2c(Sc3nccs3)c(C(=O)c3ccnc4ccccc34)sc21  167 to 168 °C

Reference source: a melting point compilation (Tetko et al.; mined from patent text by program, amines drawn as free bases though some values may be those of a salt)
